Conditions: buffer; pH 7.4; 200.0 µM
property: solubility kinetic (µg/mL)

- molecule: "O=C(c1ccncc1)N1CCc2ccccc2C1"
  result-modifier: ">"
  readout-number: 35.7
- molecule: "CC(C)(C)N1CC(C(=O)O)CC1=O (configuration not stated)"
  result-modifier: ">"
  readout-number: 27.8
- molecule: "COCCCNc1nc(-c2ccc(Cl)cc2)nc2ccccc12"
  result-modifier: "="
  readout-number: 4.3
- molecule: "C[N+](C)(C)CC(O)CC(=O)O.[Cl-] (configuration not stated)"
  result-modifier: ">"
  readout-number: 29.6
- molecule: "O=C(COC(=O)/C=C/c1cccs1)Nc1ccc(Cl)cc1F"
  result-modifier: "="
  readout-number: 3.7
- molecule: "CCOc1cc(C=O)ccc1OCCn1c([N+](=O)[O-])cnc1C"
  result-modifier: "="
  readout-number: 18.1
- molecule: "COCCNC(=O)c1ccc(-c2csc(C)n2)cc1"
  result-modifier: ">"
  readout-number: 41.5

---

Details: buffer; pH 7.4; 200.0 µM
Classify on solubility kinetic using lower band (below 4 µg/mL), central band (4 µg/mL to below 40 µg/mL), upper band (40 µg/mL or more)

- compound: "CC(=O)Oc1ccc2nc(-c3ccc(Br)o3)oc(=O)c2c1"
  group: "central band"
- compound: "Cc1ccc(CC2CC(=O)N(c3nc(C)cc(C)n3)C2=O)cc1 (centres undefined)"
  group: "upper band"
- compound: "Cc1ccc(SCCNC(=O)c2ccccc2F)cc1"
  group: "central band"
- compound: "O=C(NC(=S)Nc1ccc(O)cc1)c1ccccc1Cl"
  group: "central band"
- compound: "O=C(COC(=O)C1CCN(S(=O)(=O)c2cccs2)CC1)Nc1ccc(F)cc1Cl"
  group: "central band"
- compound: "COc1ccccc1CCNS(=O)(=O)c1cn(C)nc1C"
  group: "upper band"
- compound: "O=C(COC(=O)Cc1c(F)cccc1Cl)NC(=O)Nc1ccccc1F"
  group: "lower band"
- compound: "CC(C)Cn1c(N)c(C(=O)COC(=O)c2cccn2C)c(=O)n(C)c1=O"
  group: "upper band"
- compound: "Cc1ccc(CSCC(=O)NCc2ccco2)cc1"
  group: "central band"
- compound: "N#Cc1c(NCc2ccccc2)ccnc1Cl"
  group: "central band"
- compound: "Cc1ccc(NC(=O)CNC(=O)c2ccco2)c(Cl)c1"
  group: "upper band"
- compound: "O=[N+]([O-])c1ccc(N2CCN(c3ccc(F)cc3)CC2)cn1"
  group: "lower band"
- compound: "CSc1ccc(/C=C/C(=O)N2CCN(c3ccccn3)CC2)cc1"
  group: "lower band"
- compound: "COc1ccc2c(C(=O)CN3CCSCC3)c[nH]c2c1"
  group: "central band"
- compound: "C=CCCOc1ccccc1C(N)=O"
  group: "central band"
- compound: "O=C(/C=C/c1ccc(F)cc1)OCC(=O)c1ccc[nH]1"
  group: "lower band"
- compound: "Cc1cc(C)cc(NC(=O)CN2CCN(c3ccccc3)CC2)c1"
  group: "lower band"
- compound: "O=C(Nc1ccccc1C(=O)Nc1ccccc1)c1ccccc1Br"
  group: "lower band"
- compound: "CCC1(C)CC(C(N)=S)CCO1 (centres undefined)"
  group: "central band"
- compound: "CCSc1nc2sc3c(c2c(=O)n1-c1ccccc1C)CCN(C)C3"
  group: "upper band"
- compound: "CC(C)(C)C(=O)N1CCN(c2ccnc3cc(Cl)ccc23)CC1"
  group: "upper band"
- compound: "Cc1cccnc1NC(=O)CNC(=O)c1ccccc1"
  group: "upper band"
- compound: "O=C(Nc1ccc(F)cc1)N1CCCN(c2nccc(C(F)(F)F)n2)CC1"
  group: "upper band"
- compound: "CCOc1ccc(OCc2ccc(C(=O)N3CCCCC3)o2)cc1"
  group: "upper band"
- compound: "O=C(NC(CO)C(=O)OCc1ccccc1)OCc1ccccc1 (centres undefined)"
  group: "upper band"
- compound: "COc1ccc(C(=O)N2CCN(c3ccc(C(C)=O)cc3)CC2)cc1S(=O)(=O)N1CCCC1"
  group: "upper band"
- compound: "Cc1cccc(N(Cc2ccccc2)C(=O)CCl)c1"
  group: "upper band"
- compound: "Nc1nc(Nc2ccccc2F)nc(N2CCOCC2)c1[N+](=O)[O-]"
  group: "central band"
- compound: "Cc1ccccc1NS(=O)(=O)c1ccc(C(=O)N(C)CC(=O)Nc2ccccc2Br)cc1"
  group: "upper band"
- compound: "O=C(O)CCc1nc2cc(Cl)ccc2n(Cc2ccccc2)c1=O"
  group: "upper band"
- compound: "CCCCSCCCNC(=O)Nc1ccc(CC)cc1"
  group: "lower band"
- compound: "O=C(Oc1ccc2ccc(=O)oc2c1)c1ccc([N+](=O)[O-])cc1"
  group: "lower band"
- compound: "O=C(O)C(=O)O.c1ccc2c(CCNC3CCCCC3)c[nH]c2c1"
  group: "upper band"
- compound: "CC(=O)N1CCc2cc(S(=O)(=O)Nc3ccc(C)cc3)ccc21"
  group: "lower band"
- compound: "CCN(CC)c1ccc(CNc2nc3ccccc3n2CC)cc1"
  group: "central band"
- compound: "COc1ccc(OC)c(N(CC(=O)N2CCOCC2)S(C)(=O)=O)c1"
  group: "upper band"
- compound: "Cc1ccc(NC(=O)CN2C(=O)C3CC=C(Cl)CC3C2=O)cc1 (centres undefined)"
  group: "upper band"
- compound: "CN(C)c1ccc(C(=O)N2CCN(C(=O)C3CCCO3)CC2)cc1 (centres undefined)"
  group: "upper band"
- compound: "COc1ccccc1CC(=O)NCCc1ccccc1"
  group: "upper band"
- compound: "Cc1cc(=O)oc2cc(OCC(=O)Nc3ccccc3C(=O)O)ccc12"
  group: "upper band"
- compound: "CCCOc1ncnc2c1[nH]c1ccc(C)cc12"
  group: "lower band"
- compound: "CCc1cc2c(=O)oc(-c3ccccc3F)nc2s1"
  group: "lower band"
- compound: "CCOC(=O)C[n+]1ccc2c([nH]c3ccccc32)c1C.[Br-]"
  group: "upper band"

---

Conditions: buffer; pH 7.4; 200.0 µM
property: solubility kinetic (µg/mL)

- molecule: "O=C1CCC(=O)N1c1ccc(-c2nc3sc4c(c3c(=O)o2)CCC4)cc1"
  result-modifier: "="
  readout-number: 1
- molecule: "Cc1ccc(C)c(NC(=O)C2CCCC2)c1"
  result-modifier: ">"
  readout-number: 32.6
- molecule: "O=C(O)CCCC(=O)Nc1cc([N+](=O)[O-])ccc1O"
  result-modifier: "="
  readout-number: 35.8
- molecule: "COc1ccccc1N(Cc1cc(=O)[nH]c2ccccc12)C(C)=O"
  result-modifier: ">"
  readout-number: 48.4
- molecule: "O=C(CCCc1ccccc1)NC12CC3CC(CC(C3)C1)C2"
  result-modifier: "="
  readout-number: 11
- molecule: "OCC1(Cc2ccccc2)CCCN(Cc2c[nH]c3ccccc23)C1 (stereo unspecified)"
  result-modifier: "="
  readout-number: 36

---

Settings: buffer; pH 7.4; 200.0 µM

- molecule: "CC1Cc2ccccc2N1NC(=O)c1ccc(Cl)c(S(N)(=O)=O)c1 (configuration not stated)"
  result-modifier: ">"
  solubility kinetic (µg/mL): 54.9
- molecule: "Cc1cc(C)nc(SCC(=O)NC2CCCC2)n1"
  result-modifier: ">"
  solubility kinetic (µg/mL): 39.8
- molecule: "O=C(CNC(=O)C1CCCCC1)OCC(=O)c1ccc(Br)cc1"
  result-modifier: "="
  solubility kinetic (µg/mL): 27.6
- molecule: "N#CCC(=O)Nc1ccc(C(F)(F)F)cc1N1CCOCC1"
  result-modifier: "="
  solubility kinetic (µg/mL): 38.3
- molecule: "O=C(c1ccccc1)c1ccc(-n2ccnc2)c([N+](=O)[O-])c1"
  result-modifier: "="
  solubility kinetic (µg/mL): 34.4
- molecule: "O=c1oc2ccccc2c(O)c1Cc1cc(Cl)c2cccnc2c1O"
  result-modifier: ">"
  solubility kinetic (µg/mL): 53.1
- molecule: "CC(=O)Nc1ccc(S(=O)(=O)N2c3ccc(F)cc3CCC2C)cc1 (configuration not stated)"
  result-modifier: "="
  solubility kinetic (µg/mL): 45.9
- molecule: "O=S(=O)(c1cccc2cccnc12)N1CCCCC1"
  result-modifier: ">"
  solubility kinetic (µg/mL): 41.5
- molecule: "CN(C1(C)CCS(=O)(=O)C1)S(=O)(=O)c1ccc(F)cc1 (configuration not stated)"
  result-modifier: ">"
  solubility kinetic (µg/mL): 48.2
- molecule: "CCOc1ncccc1C(=O)Nc1ccc(F)c(F)c1"
  result-modifier: "="
  solubility kinetic (µg/mL): 6.7
- molecule: "N#Cc1ccc(COC(=O)CCc2c[nH]c3ccccc23)cc1"
  result-modifier: "="
  solubility kinetic (µg/mL): 3
- molecule: "O=S(=O)(c1ccccc1)N(CC1CO1)c1cc(Cl)ccc1Cl (configuration not stated)"
  result-modifier: "="
  solubility kinetic (µg/mL): 36.4
